Entries and their pKd values follow.
System Tested: T1, hDLL3 ECD-Avi-Fckih (biotinylated extracellular domain of human DLL3, residues 27 to 466, Avi-tag, 3C site, … (human, UniProt Q9NYJ7 27-466, biotinylated at the Avi-tag))
T1 construct: The make-up of the second Fc chain of the knob-into-hole pair is not described; also called bio-DLL3; recombinant human DLL3; not shown: Avi-tag, 3C protease recognition site and Fc knob into hole
T1 sequence: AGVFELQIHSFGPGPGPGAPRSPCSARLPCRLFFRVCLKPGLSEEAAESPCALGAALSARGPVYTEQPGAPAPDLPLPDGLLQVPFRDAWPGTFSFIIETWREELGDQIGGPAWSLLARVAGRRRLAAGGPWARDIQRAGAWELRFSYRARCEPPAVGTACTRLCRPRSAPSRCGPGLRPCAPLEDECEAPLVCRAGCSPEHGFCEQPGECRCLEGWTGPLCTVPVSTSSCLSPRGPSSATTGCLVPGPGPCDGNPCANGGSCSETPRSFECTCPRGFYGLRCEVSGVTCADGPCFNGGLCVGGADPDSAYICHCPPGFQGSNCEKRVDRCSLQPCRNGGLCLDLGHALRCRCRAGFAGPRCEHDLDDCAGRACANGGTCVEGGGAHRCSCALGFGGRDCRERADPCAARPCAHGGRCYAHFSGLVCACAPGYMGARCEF
Assay Explanation: SPR (ProteOn), biotinylated hDLL3 ECD-Avi-Fckih on chip, DARPin as analyte, 1:1 Langmuir fit
Notebook: values listed as pKd are -log10 of the concentration (mol/L).

Binder	pKd
MAM283 (two domain ankyrin repeat protein, N-terminal His6-TEV tag) (designed binder, also called 2D DARPin) MRGSHHHHHHENLYFQDLGKKLLEAARAGQDDEVRELLKAGADVNAKDYFSHTPLHLAARNGHLKIVEVLLKAGADVNAKDFAGKTPLHLAADAGHLEIVEVLLKAGADVNAQDIFGKTPADIAADAGHEDIAEVLQKAAGSPTPTPTTPTPTPTTPTPTPTGSDLGKKLLAAAADGQDDEVRELLQAGADVNAKDLFGYTPLHLAAWRGHLEIVEVLLEAGADVNAKDAAGETPLHLAAWFGHLEIVEVLLEAGADVNAQDVQGKTPADLAAKEGHEDIAEVLQQAA	9.02
MAM279 (two domain ankyrin repeat protein, N-terminal His6-TEV tag) (designed binder, Cleavage of the tag is not reported; also called 2D DARPin) MRGSHHHHHHENLYFQDLGKKLLEAARAGQDDEVRELLKAGADVNAKDYFSHTPLHLAARNGHLKIVEVLLKAGADVNAKDFAGKTPLHLAADAGHLEIVEVLLKAGADVNAQDIFGKTPADIAADAGHEDIAEVLQKAAGSPTPTPTTPTPTPTTPTPTPTGSDLGKKLLAAAAQGQDDEVRELLKAGANVNAKDLFGYTPLHLAAWRGHLEIVEVLLKAGADVNAKDAAGETPLHLAAWFGHLEIVEVLLKAGADVNAQDLQGKTPADLAAKEGHEDIAEVLQKAA	9.21
MAM282 (two domain ankyrin repeat protein, N-terminal His6-TEV tag) (designed binder, also called 2D DARPin) MRGSHHHHHHENLYFQDLGKKLLEAARAGQDDEVRELLKAGADVNAKDYFSHTPLHLAARNGHLKIVEVLLKAGADVNAKDFAGKTPLHLAADAGHLEIVEVLLKAGADVNAQDIFGKTPADIAADAGHEDIAEVLQKAAGSPTPTPTTPTPTPTTPTPTPTGSDLGKKLLAAAREGQDDEVRELLKAGADVNAKDIWGQTPLHIAAWFGHLEIVEVLLKAGADVNAKDQTGHTPLHLAAKFGHLEIVEVLLKAGADVNAQDLLGRTPADLAAEEGHEDIAEVLQKAA	8.52

Now, please, on to the next binder.
Qu. Recorded pKd of MAM160 (two domain ankyrin repeat protein, N-terminal His6-TEV tag) (designed binder, also called 2D DARPin) MRGSHHHHHHENLYFQDLGKKLLEAARAGQDDEVRELLKAGADVNAKDYFSHTPLHLAARNGHLKIVEVLLKAGADVNAKDFAGKTPLHLAADAGHLEIVEVLLKAGADVNAQDIFGKTPADIAADAGHEDIAEVLQKAAGSPTPTPTTPTPTPTTPTPTPTGSDLGTKLLSAAADGQDDEVRELLQAGADVNAKDLFGYTPLHLAAWRGHLEIVEVLLEAGADVNAKDAAGLTPLHLAAWFGHLEIVEVLLEAGADVNAQDVQGVTPADLAAKEGHEDIAEVLQQAA , please.
Ans. 8.70
